# assayProtocol: chemical genetic growth profiling, strain panel (AID 1159580);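 also: tested at 20 µM; growth read once vehicle control cultures reached saturation at 30 °C; lower values mean less growth of the strain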
# particulars: S. cerevisiae deletion strains, growth OD, locus YFR010W, strain ubp6
The campaign covered roughly 5,500 compounds. About 2,000 (36%) were called active. About 18% were inconclusive and are not listed. Rule as the data show it: active = normalized growth mostly below about 0.91 (no sharp cut-off); inconclusive = no clear call, values can overlap the other calls; inactive = mostly above about 0.92. The list shows a part of the results.
Respond only with the outcome that fits, drawn from y (active), n (inactive)

Solved cases (4 shown):
molecule	group
CN(C)CC/C=C1\c2ccccc2Sc2ccc(Cl)cc21	y
CN1CCC(=C2c3ccccc3CCc3sccc32)CC1	n
COc1ccc2c(c1OC)C(=O)O[C@H]2[C@H]1c2cc3c(cc2CCN1C)OCO3	n
CC1CC2C3CCC4=CC(=O)C=C[C@]4(C)[C@@]3(F)[C@@H](O)C[C@]2(C)[C@@]1(O)C(=O)CO (stereo not given in full)	n

Now look at this one.
Per the assay record, what outcome was assigned to CN1CCC(=C2c3ccccc3Sc3ccccc32)CC1 ?
n

Each recorded value in this set is attributed to PubChem BioAssay AID1159580.
